TESTED ON: Ba/F3 cell EGFR Exon20 ins NPH (Homo sapiens, UniProt P00533, INS773NPH)
Construct: expressed in transfected cells; host or cells: Ba/F3
TEST DESCRIPTION: Ba/F3 cell proliferation suppression, EGFR Exon20 ins NPH
Assay type: cell-based
MEASUREMENT SETUP: GI50 class; Ba/F3 cell line with NPH inserted at Exon20 of EGFR; 72 hours
MEASURED QUANTITY: Ba/F3 (NPH) Activity

// solved cases for Ba/F3 (NPH) Activity follow
Ask | Ba/F3 (NPH) Activity of C=CC(=O)Nc1cc(Nc2cc(N3OCC[C@@H]3c3cccc(Cl)c3Cl)ncn2)c(OC)cc1N(C)CCN(C)C [compound 516] on Ba/F3 cell EGFR Exon20 ins NPH (Homo sapiens, UniProt P00533, INS773NPH)?
Reply | A (GI50 < 50 nM)

Ask | Ba/F3 (NPH) Activity of C=CC(=O)Nc1cc(Nc2cc(N3OCC[C@@H]3c3cc(F)ccc3F)ncn2)c(OC)cc1N1CCC(N2C[C@H](C)N(C3CC3)C[C@H]2C)CC1 [Example 173] on Ba/F3 cell EGFR Exon20 ins NPH (Homo sapiens, UniProt P00533, INS773NPH)?
Reply | A (GI50 < 50 nM)

Ask | Ba/F3 (NPH) Activity of C=CC(=O)Nc1cc(Nc2cc(N3OCC[C@@H]3c3ccc(F)cc3F)ncn2)c(OC)cc1N1CCC(N2C[C@H]3C[C@@H]2CN3CC)CC1 [compound 425] on Ba/F3 cell EGFR Exon20 ins NPH (Homo sapiens, UniProt P00533, INS773NPH)?
Reply | A (GI50 < 50 nM)

Ask | Ba/F3 (NPH) Activity of C=CC(=O)Nc1cc(Nc2cc(N3OCC[C@@H]3c3c(F)ccc(F)c3Cl)ncn2)c(OC)cc1N1CCC(N2CCN(C3CC3)CC2)CC1 [compound 933] on Ba/F3 cell EGFR Exon20 ins NPH (Homo sapiens, UniProt P00533, INS773NPH)?
Reply | A (GI50 < 50 nM)

Others:
Ask | Ba/F3 (NPH) Activity of C=CC(=O)Nc1cc(Nc2cc(N3OCC[C@@H]3c3cccc(Cl)c3Cl)ncn2)c(OC)cc1N1CCN(C2CC2)[C@@H](C)C1 [compound 568] on Ba/F3 cell EGFR Exon20 ins NPH (Homo sapiens, UniProt P00533, INS773NPH)?
Reply | A (GI50 < 50 nM)

Ask | Ba/F3 (NPH) Activity of C=CC(=O)Nc1cc(Nc2cc(N3OCC[C@@H]3c3cc(F)ccc3F)ncn2)c(OC)cc1N1CCC(N2CCN(C3CCC3)CC2)CC1 [Example 77] on Ba/F3 cell EGFR Exon20 ins NPH (Homo sapiens, UniProt P00533, INS773NPH)?
Reply | A (GI50 < 50 nM)

Ask | Ba/F3 (NPH) Activity of C=CC(=O)Nc1cc(Nc2cc(N3OCC[C@@H]3Cc3cccc(Cl)c3F)ncn2)c(OC)cc1N(C)CCN(C)C [compound 1016] on Ba/F3 cell EGFR Exon20 ins NPH (Homo sapiens, UniProt P00533, INS773NPH)?
Reply | A (GI50 < 50 nM)

Ask | Ba/F3 (NPH) Activity of C=CC(=O)Nc1cc(Nc2cc(N3OCC[C@@H]3c3cc(F)cc(F)c3)ncn2)c(OC)cc1N1CCC(N2C[C@@H](C)N(CC)[C@@H](C)C2)CC1 [compound 827] on Ba/F3 cell EGFR Exon20 ins NPH (Homo sapiens, UniProt P00533, INS773NPH)?
Reply | A (GI50 < 50 nM)

Ask | Ba/F3 (NPH) Activity of C=CC(=O)Nc1cc(Nc2cc(N3OCC[C@@H]3c3cccc(F)c3F)ncn2)c(OC)cc1N1CCN(CC)CC1 [compound 297] on Ba/F3 cell EGFR Exon20 ins NPH (Homo sapiens, UniProt P00533, INS773NPH)?
Reply | A (GI50 < 50 nM)

Ask | Ba/F3 (NPH) Activity of C=CC(=O)Nc1cc(Nc2cc(N3OCC[C@@H]3c3cc(F)cc(F)c3)ncn2)c(OC)cc1N1CCC(N2C3CC2CN(CC)C3)CC1 [Example 249] on Ba/F3 cell EGFR Exon20 ins NPH (Homo sapiens, UniProt P00533, INS773NPH)?
Reply | A (GI50 < 50 nM)

Ask | Ba/F3 (NPH) Activity of C=CC(=O)Nc1cc(Nc2cc(N3OCC[C@@H]3Cc3cccc(F)c3)ncn2)c(OC)cc1N1CCN(C)CC1 [compound 991] on Ba/F3 cell EGFR Exon20 ins NPH (Homo sapiens, UniProt P00533, INS773NPH)?
Reply | A (GI50 < 50 nM)

Ask | Ba/F3 (NPH) Activity of C=CC(=O)Nc1cc(Nc2cc(N3OCC[C@@H]3c3cccc(F)c3)ncn2)c(OC)cc1N1CCC(N2C[C@H]3C[C@@H]2CO3)CC1 [Example 243] on Ba/F3 cell EGFR Exon20 ins NPH (Homo sapiens, UniProt P00533, INS773NPH)?
Reply | A (GI50 < 50 nM)

----------
TESTED ON: Ba/F3 cell EGFR Exon20 ins NPH (Homo sapiens, UniProt P00533, INS773NPH)
Construct: expressed in transfected cells; host or cells: Ba/F3
TEST DESCRIPTION: Ba/F3 cell proliferation suppression, EGFR Exon20 ins NPH
Assay type: cell-based
MEASUREMENT SETUP: GI50 class; Ba/F3 cell line with NPH inserted at Exon20 of EGFR; 72 hours
MEASURED QUANTITY: Ba/F3 (NPH) Activity

// solved cases for Ba/F3 (NPH) Activity follow
Ask | Recorded Ba/F3 (NPH) Activity for C=CC(=O)Nc1cc(Nc2cc(N3OCC[C@@H]3c3cccc(F)c3F)ncn2)c(OC)cc1N1C[C@H]2CCN(C)[C@H]2C1 [compound 875] , please?
Reply | A (GI50 < 50 nM)

Ask | Recorded Ba/F3 (NPH) Activity for C=CC(=O)Nc1cc(Nc2cc(N3OCC[C@@H]3c3cccc(F)c3)ncn2)c(OC)cc1N1C[C@@H]2C[C@H]1CO2 [compound 832] , please?
Reply | A (GI50 < 50 nM)

Ask | Recorded Ba/F3 (NPH) Activity for C=CC(=O)Nc1cc(Nc2cc(N3OCC[C@@H]3c3ccc(F)c(Cl)c3)ncn2)c(OC)cc1N1CC[C@@H](N(C)C)C1 [compound 756] , please?
Reply | A (GI50 < 50 nM)

Ask | Recorded Ba/F3 (NPH) Activity for C=CC(=O)Nc1cc(Nc2cc(N3OCC[C@@H]3c3cccc(C)c3F)ncn2)c(OC)cc1N1CCN(CC)CC1 [compound 847] , please?
Reply | A (GI50 < 50 nM)

Ask | Recorded Ba/F3 (NPH) Activity for C=CC(=O)Nc1cc(Nc2cc(N3OCC[C@@H]3c3cc(F)cc(Cl)c3)ncn2)c(OC)cc1N1CCN(C2COC2)CC1 [compound 597] , please?
Reply | A (GI50 < 50 nM)

Others:
Ask | Recorded Ba/F3 (NPH) Activity for C=CC(=O)Nc1cc(Nc2cc(N3OCC[C@@H]3c3cccc(Cl)c3C)ncn2)c(OC)cc1N1CCC(N2C[C@@H]3C[C@H]2CO3)CC1 [compound 531] , please?
Reply | A (GI50 < 50 nM)

Ask | Recorded Ba/F3 (NPH) Activity for C=CC(=O)Nc1cc(Nc2cc(N3OCC[C@@H]3c3ccc(Cl)c(Cl)c3)ncn2)c(OC)cc1N1CCC(N2CCN(C3COC3)CC2)CC1 [compound 931] , please?
Reply | A (GI50 < 50 nM)

Ask | Recorded Ba/F3 (NPH) Activity for C=CC(=O)Nc1cc(Nc2cc(N3OCC[C@@H]3c3cc(F)ccc3F)ncn2)c(OC)cc1N1C[C@@H]2C[C@H]1CO2 [compound 329] , please?
Reply | A (GI50 < 50 nM)

----------
Listed below: % inhibition of scanMAX Kinase profiling values for each entry.
Tested on: scanMAX kinase panel (EGFR mutant, ERBB2, ERBB4)
TEST DESCRIPTION: DiscoverX (eurofin) KINOMEscan (scanMAX platform) kinase profiling
Assay type: binding
MEASUREMENT SETUP: ERBB2
Just the number in %, nothing appended.

// solved cases for % inhibition of scanMAX Kinase profiling follow
Ask | Recorded % inhibition of scanMAX Kinase profiling for C=CC(=O)Nc1cc(Nc2cc(N3OCC[C@@H]3c3ccccc3)ncn2)c(OC)cc1N(C)CCN(C)C , please?
Reply | 100

Ask | Recorded % inhibition of scanMAX Kinase profiling for C=CC(=O)Nc1cc(Nc2cc(N3OCC[C@@H]3c3cc(F)cc(F)c3)ncn2)c(OC)cc1N1CCC(N2CCN(CC)CC2)CC1 , please?
Reply | 100

Here's the next entry for you.
Ask | Recorded % inhibition of scanMAX Kinase profiling for C=CC(=O)Nc1cc(Nc2cc(N3OCC[C@@H]3c3ccccc3)ncn2)c(OC)cc1N1CCC(N2CCN(C)CC2)CC1 , please?
Reply | 100
